Molecular target: Cytochrome P450 1A2 (Homo sapiens)
Test: Cytochrome panel assay with activity outcomes
Conditions: recombinant CYP, pro-luciferin dealkylation, luminescence, p450-cyp1a2; series mostly up to 57.1 µM
The whole screen tested about 16,000 compounds, of which about 5,700 (36%) were called active. Not shown: some 24% with an inconclusive outcome. Calls follow the shape of the dose curve; as a rule, active = well fitted curve in the direction sought with a large enough effect; inconclusive = small, poorly fitted or top-dose-only effect, or effect the other way; inactive = no such curve, though single readings can be large or run the other way. The list shows a part of the results.
Outcome codes: T (active), F (inactive)

compound=S=C(S)NCCCn1ccnc1 tgt="Cytochrome P450 1A2 (Homo sapiens)" cat=T
compound=C[C@H](CO)NC(=O)[C@H]1C[C@@H]1[C@H](NP(=O)(c1ccccc1)c1ccccc1)c1ccccc1 tgt="Cytochrome P450 1A2 (Homo sapiens)" cat=F
compound="CCSc1nc2sc3c(c2c(=O)[nH]1)CC(C)(CC)OC3 (stereo not given)" tgt="Cytochrome P450 1A2 (Homo sapiens)" cat=F
compound="CCCC(=O)N1c2ccccc2C(N(C(C)=O)c2ccccc2)CC1C (stereo not given)" tgt="Cytochrome P450 1A2 (Homo sapiens)" cat=F
compound=C=CCSc1nc2c(sc3nc(C)cc(C)c32)c(=O)[nH]1 tgt="Cytochrome P450 1A2 (Homo sapiens)" cat=T
compound=Cc1ccc(CNC(=O)[C@H]2C[C@@H]2[C@H](NP(=O)(c2ccccc2)c2ccccc2)c2ccccc2)c(F)c1F tgt="Cytochrome P450 1A2 (Homo sapiens)" cat=F
compound=C[C@H](CO)NC(=O)[C@@H]1C[C@H]1[C@@H](NP(=O)(c1ccccc1)c1ccccc1)c1ccccc1 tgt="Cytochrome P450 1A2 (Homo sapiens)" cat=F
compound=O=C(NCc1cc(F)cc2c1OCCO2)[C@H]1C[C@@H]1[C@H](NP(=O)(c1ccccc1)c1ccccc1)c1ccccc1 tgt="Cytochrome P450 1A2 (Homo sapiens)" cat=T
compound=CCOc1ccc2nc(N3CCCCCC3)sc2c1 tgt="Cytochrome P450 1A2 (Homo sapiens)" cat=T
compound=C[N+]1(C)CCC[C@@H](OC(=O)C(O)(c2ccccc2)c2ccccc2)C1 tgt="Cytochrome P450 1A2 (Homo sapiens)" cat=F

----------
Target: Cytochrome P450 1A2 (Homo sapiens)
Test: Cytochrome panel assay with activity outcomes; as to activity, negative = inhibition: % is scaled to controls: 0 for no effect and ±100 for the full control effect
Details: recombinant CYP, pro-luciferin dealkylation, luminescence, p450-cyp1a2; series mostly up to 57.1 µM
Out of some 16,000 compounds screened, about 5,700 (36%) were called active. Roughly 24% stayed inconclusive and do not appear here. The list shows a part of the results.
observation_type: activity, negative = inhibition

compound="Cc1c2cccc(Sc3ccccc3)c2c2c3c(cccc13)[S+](c1ccccc1)C2 (stereo not given)" value_observed="-17.3% [at 2.29 µM] (inactive)"
compound=CCC(=O)Nc1ncnc2ncn(C(=O)CC)c12 value_observed="-5.19% [at 11.4 µM] (inactive)"
compound=OCCCSCCO value_observed="-19.1% [at 2.29 µM] (inactive)"
compound=CO[C@H]1COC(=O)[C@@H](CCSC)NC(=O)C/C=C\[C@@H](C)[C@H](OC)COC(=O)[C@@H](OCc2ccccc2)/C=C\[C@@H]1C value_observed="-4.15% [at 11.4 µM] (inactive)"
compound=CCOC(=O)CCN1C(=O)[C@H]2[C@H]3[C@H](O)[C@H](O)C/C(=N/OC/C=C(\C)CCC=C(C)C)[C@@H]3CC[C@@H]2C1=O value_observed="-2.33% [at 11.4 µM] (inactive)"

----------
Biological target: Cytochrome P450 1A2 (Homo sapiens)
Test: Cytochrome panel assay with activity outcomes
Details: recombinant CYP, pro-luciferin dealkylation, luminescence, p450-cyp1a2; series mostly up to 57.1 µM
The campaign covered roughly 16,000 compounds. About 5,700 (36%) were called active. Inconclusive results (about 24%) are left out. Calls follow the shape of the dose curve; as a rule, active = well fitted curve in the direction sought with a large enough effect; inconclusive = small, poorly fitted or top-dose-only effect, or effect the other way; inactive = no such curve, though single readings can be large or run the other way. This is one part of the list.
Outcome codes: active, inactive

compound=C#CCCCCCCCCCCCCCCCC(=O)O cat=active
compound=Cc1[nH]nc(-c2ccc(OCc3cnn(-c4ccccc4)c3)cc2O)c1Oc1ccccc1F cat=active
compound=Cn1c(=O)c(-c2ccccc2)nc2cnc(N3CCOCC3)nc21 cat=active
compound=Cc1nc2nc[nH]n2c(=O)c1NC(=O)CC12CC3CC(CC(C3)C1)C2 cat=inactive
compound=CNC(=O)c1nnn(Cc2ccccc2)c1NC(=O)C(F)(F)F cat=inactive
compound=O=C(NC[C@@H](O)CO)c1c(I)c(C(=O)NC[C@@H](O)CO)c(I)c(N(CCO)C(=O)CO)c1I cat=inactive
compound=CN1CCN(c2ncc3nc(-c4ccccc4)c(=O)n(Cc4ccc(F)cc4)c3n2)CC1 cat=inactive
compound=COC(=O)[C@@]1(Cc2ccccc2)[C@H]2c3cc(C(=O)N4CCCC4)n(Cc4ccc(S(C)(=O)=O)cc4)c3C[C@H]2CN1C(=O)c1ccccc1 cat=inactive
compound=COc1cccc(/C=N/n2c(=S)n(C)c3cc(C)c(C)cc32)c1OC cat=active
compound=FC(F)(F)c1cc(C(F)(F)F)c2ccc(N/N=C/c3cccc(Cl)c3)nc2n1 cat=active
compound=c1ccc2c(NC3CCNCC3)nc(-c3ccoc3)nc2c1 cat=active
compound=CO[C@H]1[C@H](O[C@H]2O[C@@H](C)[C@@H](O[C@@H]3C[C@](C)(O)[C@H](OC(=O)CC(C)C)[C@H](C)O3)[C@@H](N(C)C)[C@@H]2O)[C@@H](CC=O)C[C@@H](C)[C@@H](O)/C=C\C=C/C[C@@H](C)OC(=O)C[C@H]1OC(C)=O cat=inactive
compound=COC(=O)c1ccc(Oc2coc3cc(OCc4cnn(-c5ccccc5)c4)ccc3c2=O)cc1 cat=inactive
compound="CCC1(C)CC(CCNS(=O)(=O)c2ccc(C)cc2)(c2ccc(C)cc2)CCO1 (centres undefined)" cat=inactive
compound=Cc1cc(C)n2nc(-c3sccc3-n3cccc3)cc2n1 cat=active
compound=c1ccc2c(NC3CC3)nc(-c3ccoc3)nc2c1 cat=active
compound=Cn1c(=O)c(-c2ccccc2)nc2cnc(N3CCNCC3)nc21 cat=active
compound=Cc1cc(C(=O)Nc2c(C)n(C)n(-c3ccccc3)c2=O)c2ccccc2n1 cat=inactive
compound=CN1CCN(c2ncc3nc(-c4cccs4)c(=O)n(Cc4cccs4)c3n2)CC1 cat=active

----------
Molecular target: Cytochrome P450 1A2 (Homo sapiens)
Assay: Cytochrome panel assay with activity outcomes
Settings: recombinant CYP, pro-luciferin dealkylation, luminescence, p450-cyp1a2; series mostly up to 57.1 µM
The whole screen tested about 16,000 compounds, of which about 5,700 (36%) were called active. Not shown: some 24% with an inconclusive outcome. Calls come from the whole dose curve; as a rule, active = well fitted curve in the direction sought with a large enough effect; inconclusive = small, poorly fitted or top-dose-only effect, or effect the other way; inactive = no such curve, though single readings can be large or run the other way. This is one part of the list.
Outcome codes: true (1) for active, false (0) for inactive

compound="C=CCN1C(=NC(=O)CC)SC2CS(=O)(=O)CC21 (stereo not given)" tgt="Cytochrome P450 1A2 (Homo sapiens)" cat="false (0)"
compound=Cc1[nH]c2ccccc2c1-c1cc(-c2cc(-c3c(C)[nH]c4ccccc34)on2)no1 tgt="Cytochrome P450 1A2 (Homo sapiens)" cat="true (1)"
compound=COc1ccc(S(=O)(=O)NCc2ccc(C(=O)N3CCN(c4ccccn4)CC3)cc2)cc1 tgt="Cytochrome P450 1A2 (Homo sapiens)" cat="false (0)"
compound=CCOC(=O)Cn1nnc2c(sc3nc4c(c(-c5ccc(Cl)cc5)c32)CCC4)c1=O tgt="Cytochrome P450 1A2 (Homo sapiens)" cat="true (1)"
compound=Cc1[nH]c2ccccc2c1-c1cc(-c2cc(-c3c(C)[nH]c4ccccc34)nc(N)n2)nc(N)n1 tgt="Cytochrome P450 1A2 (Homo sapiens)" cat="true (1)"
compound=O=C(OCc1nc2ccccc2[nH]1)C12CC3CC(CC(C3)C1)C2 tgt="Cytochrome P450 1A2 (Homo sapiens)" cat="true (1)"
compound=COc1ccc(NC(=O)N2CCCC3(CCN(C(=O)c4csnn4)CC3)C2)cc1 tgt="Cytochrome P450 1A2 (Homo sapiens)" cat="false (0)"
compound=O=C(O)CN(CCN(CC(=O)O)CC(=O)O)CCN(CC(=O)O)CC(=O)O tgt="Cytochrome P450 1A2 (Homo sapiens)" cat="false (0)"
compound="COc1cccc(CN2C(=O)N(C(C)C)C(N(O)C(=O)NC(C)C)C2(C)C)c1OC (stereo not given)" tgt="Cytochrome P450 1A2 (Homo sapiens)" cat="false (0)"
compound="CC(Sc1ccc2c(c1)OCCO2)C(=O)Nc1ncc(Cl)cc1Cl (stereo not given)" tgt="Cytochrome P450 1A2 (Homo sapiens)" cat="true (1)"

----------
Target: Cytochrome P450 1A2 (Homo sapiens) (UniProt P05177)
Sequence (P05177 whole entry, looked up): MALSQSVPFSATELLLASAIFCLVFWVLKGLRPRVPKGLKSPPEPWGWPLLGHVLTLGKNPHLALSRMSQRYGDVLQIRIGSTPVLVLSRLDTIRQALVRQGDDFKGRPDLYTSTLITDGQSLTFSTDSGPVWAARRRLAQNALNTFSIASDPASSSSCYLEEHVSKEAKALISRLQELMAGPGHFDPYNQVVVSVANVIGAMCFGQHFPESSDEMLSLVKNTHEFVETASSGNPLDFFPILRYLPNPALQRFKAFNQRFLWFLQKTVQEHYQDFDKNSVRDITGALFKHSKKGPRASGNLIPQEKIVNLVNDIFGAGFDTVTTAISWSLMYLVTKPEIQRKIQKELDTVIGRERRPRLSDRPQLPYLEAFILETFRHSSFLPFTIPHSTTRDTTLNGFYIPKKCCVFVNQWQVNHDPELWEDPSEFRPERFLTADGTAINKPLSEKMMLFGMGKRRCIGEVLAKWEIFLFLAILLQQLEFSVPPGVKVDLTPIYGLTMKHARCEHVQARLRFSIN
Test: Cytochrome panel assay with activity outcomes
Conditions: recombinant CYP, pro-luciferin dealkylation, luminescence, p450-cyp1a2; series mostly up to 57.1 µM
Screen size: about 16,000 compounds; about 5,700 (36%) were called active. Inconclusive results (about 24%) are left out. The call rests on the fitted dose curve; in most records, active means well fitted curve in the direction sought with a large enough effect; inconclusive means small, poorly fitted or top-dose-only effect, or effect the other way; inactive means no such curve, though single readings can be large or run the other way. This is one part of the list.
Outcome codes: TRUE for active, FALSE for inactive

smiles_str=CC(=O)c1cccc(NS(=O)(=O)c2ccc(N/C=C\C(=O)c3ccc(F)cc3)cc2)c1 cat=TRUE
smiles_str=CN1CCN(c2nc(-c3ccoc3)nc3ccccc23)CC1 cat=TRUE
smiles_str=c1ccc2c(N3CCOCC3)nc(-c3ccoc3)nc2c1 cat=TRUE
smiles_str=COc1ccc(N=C2S/C(=C\c3ccc(C)s3)C(=O)N2CC(C)C)cc1 cat=FALSE
smiles_str=Cc1ccc(CS(=O)(=O)CCC(=O)NCCCN2CCCC2)cc1 cat=FALSE
smiles_str=Cc1nc2ncnn2c(C)c1CCC(=O)Nc1ccc(S(=O)(=O)N2CCCCCC2)cc1 cat=FALSE
smiles_str=CC(=O)c1ccc(S(=O)(=O)NC(=O)NC2CCCCC2)cc1 cat=FALSE
smiles_str=COc1cccc(CNc2ccc(F)c(Cl)c2)c1O cat=FALSE
smiles_str=O=C(c1cc(-c2ccncc2)nc2ccccc12)N1CCN(c2ccc(N3CCOCC3)nn2)CC1 cat=FALSE
smiles_str=COc1ccccc1-c1cc(C(F)(F)F)nc(S(=O)(=O)CCCC(=O)NC(C)C)n1 cat=TRUE
smiles_str=COCCCNC(=O)Cn1nc(-c2ccccc2OC)ccc1=O cat=FALSE
